- Experimental Target: T1, human MHC class II DR protein (DRA*0101/DRB1*0401), purified from PRIESS cells (human, UniProt P01903 26-254; P01911 30-266, limits assumed)
- T1 construct: mature; also called HLA-DR protein; MHCII
- T1 MHC II alpha: not shown
- T1 MHC II beta: not shown
- Method Description: SPR (BIAcore), chip density 4000 RU MHCII
Measured Endpoint: kon (M⁻¹ s⁻¹)

1. MS-GPC-8-17 Fab (Fab, V domains shown, Fab: VH-CH1 with FLAG tag and STREP tag II, VL-CL; VH residue 1 is Q in Fab; also called 7BA) VH: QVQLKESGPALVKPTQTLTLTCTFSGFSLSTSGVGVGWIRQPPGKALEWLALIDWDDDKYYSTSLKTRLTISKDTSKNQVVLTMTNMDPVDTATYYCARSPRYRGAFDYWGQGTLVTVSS VL: DIVLTQPPSVSGAPGQRVTISCSGSSSNIGSNYVSWYQQLPGTAPKLLIYDNNQRPSGVPDRFSGSKSGTSASLAITGLQSEDEADYYCQSYDFSVYVFGGGTKLTVLG : 100000
2. MS-GPC-8-9 Fab (Fab, V domains shown, Fab: VH-CH1 with FLAG tag and STREP tag II, VL-CL; VH residue 1 is Q in Fab) VH: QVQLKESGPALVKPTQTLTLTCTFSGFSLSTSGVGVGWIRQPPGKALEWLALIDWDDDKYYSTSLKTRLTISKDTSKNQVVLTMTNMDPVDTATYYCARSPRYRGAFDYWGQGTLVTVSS VL: DIVLTQPPSVSGAPGQRVTISCSGSSSNIGSNYVSWYQQLPGTAPKLLIYDNNQRPSGVPDRFSGSKSGTSASLAITGLQSEDEADYYCQSYDIQLHVFGGGTKLTVLG : 185000
3. MS-GPC-8-1 Fab (Fab, V domains shown, Fab: VH-CH1 with FLAG tag and STREP tag II, VL-CL; VH residue 1 is Q in Fab) VH: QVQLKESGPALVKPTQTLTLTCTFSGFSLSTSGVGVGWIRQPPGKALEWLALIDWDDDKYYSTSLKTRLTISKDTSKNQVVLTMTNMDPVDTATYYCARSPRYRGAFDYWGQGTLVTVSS VL: DIVLTQPPSVSGAPGQRVTISCSGSSSNIGSNYVSWYQQLPGTAPKLLIYDNNQRPSGVPDRFSGSKSGTSASLAITGLQSEDEADYYCQSYDFSHYVFGGGTKLTVLG : 193000
4. MS-GPC-8-18 Fab (Fab, V domains shown, Fab: VH-CH1 with FLAG tag and STREP tag II, VL-CL; VH residue 1 is Q in Fab) VH: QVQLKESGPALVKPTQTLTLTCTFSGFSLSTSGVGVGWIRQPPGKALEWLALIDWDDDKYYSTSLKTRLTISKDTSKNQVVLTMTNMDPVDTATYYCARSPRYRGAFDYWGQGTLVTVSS VL: DIVLTQPPSVSGAPGQRVTISCSGSSSNIGSNYVSWYQQLPGTAPKLLIYDNNQRPSGVPDRFSGSKSGTSASLAITGLQSEDEADYYCQSYDFSIYVFGGGTKLTVLG : 106000
